experiment: Toxicity liver stage against HepG2, at 10uM; format: cell-based; design: test concentration 10 uM, cell line HepG2-A16-CD81EGFP; conditions: human, HepG2-A16-CD81EGFP cells; read-out: INHIBITION
measure: cytotoxicity at 10 µM (%)
Hi! Could you send only the number? It should be in %, unit omitted.

Task: Query cytotoxicity at 10 µM for O=C(NCC1CC1)c1cc2c(s1)CCN2C(=O)c1cccnc1
Result: 8.07

Task: Query cytotoxicity at 10 µM for Cn1cc(NC(=O)N2CCN(Cc3cscn3)CC2)ccc1=O
Result: 3.67

Task: Query cytotoxicity at 10 µM for CC(=O)N1CCCC2(CCN(c3ccccc3)C2=O)C1 (stereo unspecified)
Result: 1.91

Task: Query cytotoxicity at 10 µM for Cc1nc(NC(=O)C(C)N(C)Cc2cccc(C#N)c2)sc1C (stereo unspecified)
Result: -0.506

Task: Query cytotoxicity at 10 µM for CNC(=O)CN1C(=O)CCC12CCCN(Cc1ccccn1)C2 (stereo unspecified)
Result: 4.5

Task: Query cytotoxicity at 10 µM for CCn1nnc(NCc2cc(Br)cc(Br)c2OC)n1
Result: 13.3
